# tested_target: T1, human MET ECD (human, UniProt P08581 25-932)
# T1 construct: range 1-932; recombinant ECD made by the applicants; the stated range begins at residue 1, so it includes the signal peptide of the entry; also called hMET; hMET ECD
# T1 sequence (P08581 25-932 limits assumed, form in doubt): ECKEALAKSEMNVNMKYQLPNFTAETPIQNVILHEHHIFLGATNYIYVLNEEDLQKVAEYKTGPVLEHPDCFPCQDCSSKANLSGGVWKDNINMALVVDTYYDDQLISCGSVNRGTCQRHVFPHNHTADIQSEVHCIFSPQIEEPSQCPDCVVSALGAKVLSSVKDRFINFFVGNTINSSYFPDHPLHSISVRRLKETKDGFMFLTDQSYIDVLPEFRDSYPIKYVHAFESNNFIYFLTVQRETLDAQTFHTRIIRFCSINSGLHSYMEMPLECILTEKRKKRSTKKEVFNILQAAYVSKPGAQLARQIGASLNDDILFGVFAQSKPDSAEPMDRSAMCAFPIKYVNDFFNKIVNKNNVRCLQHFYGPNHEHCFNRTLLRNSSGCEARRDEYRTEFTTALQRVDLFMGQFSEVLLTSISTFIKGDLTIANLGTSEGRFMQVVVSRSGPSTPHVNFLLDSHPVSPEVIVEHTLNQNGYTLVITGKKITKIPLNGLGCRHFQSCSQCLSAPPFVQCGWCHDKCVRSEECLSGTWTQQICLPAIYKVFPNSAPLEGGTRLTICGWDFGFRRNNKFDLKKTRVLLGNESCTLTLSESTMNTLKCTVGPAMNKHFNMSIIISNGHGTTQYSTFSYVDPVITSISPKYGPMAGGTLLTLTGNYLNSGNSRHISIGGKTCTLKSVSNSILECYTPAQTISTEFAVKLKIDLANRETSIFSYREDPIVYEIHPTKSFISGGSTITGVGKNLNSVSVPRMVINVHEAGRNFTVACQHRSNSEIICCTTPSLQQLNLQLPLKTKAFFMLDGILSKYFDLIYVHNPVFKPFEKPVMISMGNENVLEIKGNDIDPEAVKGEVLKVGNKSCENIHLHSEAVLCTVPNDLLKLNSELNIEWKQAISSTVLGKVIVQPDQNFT
# assay_remarks: SPR, MET ECD on chip, crude periplasmic Fab
endpoint_name: koff (s⁻¹)
Kindly answer with a numeric value in s⁻¹, unit omitted.

What value of measured koff is listed for 76H10 Fab (Fab, V domains shown, llama Fab (VH-CH1 and lambda VL-CL) with MYC flag, crude periplasmic extract) VH: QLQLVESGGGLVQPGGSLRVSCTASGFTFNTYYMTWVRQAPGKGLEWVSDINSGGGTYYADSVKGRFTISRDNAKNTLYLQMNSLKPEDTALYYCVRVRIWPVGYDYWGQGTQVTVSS VL: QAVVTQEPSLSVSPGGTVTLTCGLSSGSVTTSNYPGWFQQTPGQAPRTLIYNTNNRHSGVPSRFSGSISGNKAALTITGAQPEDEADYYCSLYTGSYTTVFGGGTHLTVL ?
0.00568

What about 71C3 Fab (Fab, V domains shown, llama Fab (VH-CH1 and lambda VL-CL) with MYC flag, crude periplasmic extract) VH: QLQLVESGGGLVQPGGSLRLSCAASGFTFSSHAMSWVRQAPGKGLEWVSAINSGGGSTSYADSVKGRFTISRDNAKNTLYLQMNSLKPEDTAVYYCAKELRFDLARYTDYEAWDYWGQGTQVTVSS VL: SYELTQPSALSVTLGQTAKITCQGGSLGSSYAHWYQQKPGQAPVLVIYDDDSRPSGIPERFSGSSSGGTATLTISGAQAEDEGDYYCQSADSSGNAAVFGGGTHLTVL ?
0.00225

What about 76G7 Fab (Fab, V domains shown, llama Fab (VH-CH1 and lambda VL-CL) with MYC flag, crude periplasmic extract) VH: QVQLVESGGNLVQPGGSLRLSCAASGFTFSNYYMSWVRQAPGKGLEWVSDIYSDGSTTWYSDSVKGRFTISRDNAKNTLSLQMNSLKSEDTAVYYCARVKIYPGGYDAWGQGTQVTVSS VL: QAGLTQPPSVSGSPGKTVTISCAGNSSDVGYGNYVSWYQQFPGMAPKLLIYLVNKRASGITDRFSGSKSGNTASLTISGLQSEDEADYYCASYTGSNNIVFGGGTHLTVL ?
0.00432

What about 71A3 Fab (Fab, V domains shown, llama Fab (VH-CH1 and lambda VL-CL) with MYC flag, crude periplasmic extract) VH: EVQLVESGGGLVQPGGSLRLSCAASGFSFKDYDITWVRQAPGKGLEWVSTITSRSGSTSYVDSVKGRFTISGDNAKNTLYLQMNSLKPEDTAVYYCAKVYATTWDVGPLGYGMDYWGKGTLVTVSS VL: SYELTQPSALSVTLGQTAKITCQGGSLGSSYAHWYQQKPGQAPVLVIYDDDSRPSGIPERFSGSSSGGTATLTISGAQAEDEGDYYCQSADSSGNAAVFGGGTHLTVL ?
0.00492

What about 71G3 Fab (Fab, V domains shown, llama Fab (VH-CH1 and lambda VL-CL) with MYC flag, crude periplasmic extract) VH: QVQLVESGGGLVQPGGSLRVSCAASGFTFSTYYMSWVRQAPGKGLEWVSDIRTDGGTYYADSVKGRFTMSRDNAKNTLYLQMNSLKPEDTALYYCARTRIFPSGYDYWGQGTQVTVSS VL: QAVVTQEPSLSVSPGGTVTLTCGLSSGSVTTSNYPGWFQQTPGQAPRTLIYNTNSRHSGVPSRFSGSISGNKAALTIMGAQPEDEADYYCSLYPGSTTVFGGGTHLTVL ?
0.00142

What about 71D4 Fab (Fab, V domains shown, llama Fab (VH-CH1 and lambda VL-CL) with MYC flag, crude periplasmic extract) VH: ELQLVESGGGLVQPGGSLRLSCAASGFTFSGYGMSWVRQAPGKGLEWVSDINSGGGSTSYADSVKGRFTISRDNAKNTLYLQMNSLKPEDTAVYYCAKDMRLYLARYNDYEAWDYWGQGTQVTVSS VL: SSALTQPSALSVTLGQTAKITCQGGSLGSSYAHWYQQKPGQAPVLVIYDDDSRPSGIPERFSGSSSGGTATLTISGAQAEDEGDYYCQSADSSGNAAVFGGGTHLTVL ?
0.00217
